target: GSK3β (Homo sapiens); test: GSK3β kinase assay (Caliper LabChip3000, fluoresceinated peptide substrate); type: biochemical; conditions: first value of the cell; 250 pM enzyme, 20 uM ATP, 20 hours at room temperature; read-out: GSK3β/α (nM): GSK3β IC50
Sequence (P49841 whole entry, species assumed): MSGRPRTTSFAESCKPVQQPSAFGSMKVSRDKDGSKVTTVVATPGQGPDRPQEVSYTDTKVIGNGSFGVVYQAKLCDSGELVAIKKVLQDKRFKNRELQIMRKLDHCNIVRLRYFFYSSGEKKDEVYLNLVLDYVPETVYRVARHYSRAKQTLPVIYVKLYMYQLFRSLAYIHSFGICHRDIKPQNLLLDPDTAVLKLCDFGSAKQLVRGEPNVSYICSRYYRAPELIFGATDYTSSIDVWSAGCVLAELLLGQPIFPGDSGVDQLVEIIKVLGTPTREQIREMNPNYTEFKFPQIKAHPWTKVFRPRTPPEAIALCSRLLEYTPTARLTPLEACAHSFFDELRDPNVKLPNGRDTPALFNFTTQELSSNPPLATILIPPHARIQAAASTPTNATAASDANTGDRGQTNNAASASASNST
Would you mind classing the entries by IC50? Ranges: A: < 3 nM; B: ≥ 3 nM and < 20 nM; C: ≥ 20 nM

Query :: Tag the class for O=C(Nc1cnccc1N1C2CCC1CC2)c1ccnc(NC(=O)C2CC2)c1
Result :: B

Query :: Try this molecule next: O=C1CCC(C(=O)Nc2cc(C(=O)Nc3cnccc3-c3ccccc3)ccn2)C1 (stereo not drawn)
Result :: A

Query :: Try this molecule next: O=C(Nc1cnccc1-c1ccncc1)c1ccnc(NC(=O)C2CC2)c1
Result :: C

Query :: Try this molecule next: O=C(Nc1cncc(Br)c1)c1ccnc(NC(=O)C2CC2)c1
Result :: B

Query :: Try this molecule next: O=C(Nc1cncc(-c2ccoc2)c1)c1ccnc(NC(=O)C2CC2)c1
Result :: A

Query :: Try this molecule next: CCC1(c2cc(Cl)ncc2NC(=O)c2ccnc(NC(=O)C(C)C)c2)OCCO1
Result :: A

Query :: Try this molecule next: CC1(C)CC1C(=O)Nc1cc(C(=O)Nc2cnccc2-c2ccccc2)ccn1 (stereo not drawn)
Result :: A

Query :: Try this molecule next: O=C(Nc1c(-c2ccccc2)ncc2ccccc12)c1ccnc(NC(=O)C2CC2)c1
Result :: B

Query :: Try this molecule next: O=C(Nc1cncc(C(F)(F)F)c1)c1ccnc(NC(=O)C2CC2)c1
Result :: C

Query :: Try this molecule next: Cc1ncc(-c2cncc(NC(=O)c3ccnc(NC(=O)C4CC4)c3)c2)s1
Result :: B

Query :: Try this molecule next: Cc1cc(-c2cncc(NC(=O)c3ccnc(NC(=O)C4CC4)c3)c2)c(C)s1
Result :: A

Query :: Try this molecule next: CCC1(c2cc(Cl)ncc2NC(=O)c2ccnc(NC(=O)C(C)(C)C)c2)OCCO1
Result :: B

Query :: Try this molecule next: CC(C)C(=O)Nc1cc(C(=O)Nc2cnccc2C(=O)c2ccccc2)ccn1
Result :: B

Query :: Try this molecule next: O=C(Nc1cncc(-n2ccnc2)c1)c1ccnc(NC(=O)C2CC2)c1
Result :: A

Query :: Try this molecule next: O=C(Nc1cncs1)c1ccnc(NC(=O)C2CC2)c1
Result :: B

Query :: Try this molecule next: O=C(Nc1cncc(-c2cccc3[nH]ccc23)c1)c1ccnc(NC(=O)C2CC2)c1
Result :: C

Query :: Try this molecule next: O=C(Nc1cnccc1-c1ccccc1)c1ccnc(NC(=O)C2CC2(F)F)c1 (stereo not drawn)
Result :: B

Query :: Try this molecule next: O=C(Nc1cnccc1-c1cncnc1)c1ccnc(NC(=O)C2CC2)c1
Result :: C
